// data source = ChEMBL document CHEMBL4265902

biological target: Sodium- and chloride-dependent GABA transporter 2 (Homo sapiens); experiment: Inhibition of human GAT2 expressed in CHO cells assessed as reduction in [3H]GABA uptake at 100 uM after 20 mins by liquid scintillation counting analysis relative to control; type: cell-based
# reported inhibition; entries follow
Experimental Endpoint: inhibition (%)

Structure: C[C@@H](C(=O)O)[C@@H]1C[C@H]1N
Meas Value: -5.2
--
Structure: CC[C@@H](C(=O)O)[C@@H]1C[C@H]1N
Meas Value: 3.3
--
Structure: N[C@@H]1C[C@H]1[C@@H](F)C(=O)O
Meas Value: 45.3
--
Structure: N[C@@H]1C[C@H]1[C@@H](O)C(=O)O
Meas Value: 20.1
--
Structure: CC[C@H](C(=O)O)[C@@H]1C[C@H]1N
Meas Value: -2.4
--
Structure: C=C[C@@H](C(=O)O)[C@@H]1C[C@H]1N
Meas Value: -9.5
--
Structure: [N-]=[N+]=N[C@@H](C(=O)O)[C@@H]1C[C@H]1N
Meas Value: 6.8
